target-system: T1, Elongation factor EF-Tu, His-tagged, biotinylated (S. Typhimurium, UniProt P0A1H5 1-394, biotin (site not stated))
T1 construct: Elongation factor Tu (tufA), S. Typhimurium strain 14028S, gene amplified from the genomic DNA; The methods sentence on vectors (pSUMO3 and pQE80, 'respectively') leaves open which vector was used; probably pQE80 with a C-terminal 6xHis; also called tufA; source: E. coli BL21, purified (Ni-NTA); biotinylated, PD-10 column; not shown: His6, C-terminal, kept
T1 sequence (P0A1H5 whole entry): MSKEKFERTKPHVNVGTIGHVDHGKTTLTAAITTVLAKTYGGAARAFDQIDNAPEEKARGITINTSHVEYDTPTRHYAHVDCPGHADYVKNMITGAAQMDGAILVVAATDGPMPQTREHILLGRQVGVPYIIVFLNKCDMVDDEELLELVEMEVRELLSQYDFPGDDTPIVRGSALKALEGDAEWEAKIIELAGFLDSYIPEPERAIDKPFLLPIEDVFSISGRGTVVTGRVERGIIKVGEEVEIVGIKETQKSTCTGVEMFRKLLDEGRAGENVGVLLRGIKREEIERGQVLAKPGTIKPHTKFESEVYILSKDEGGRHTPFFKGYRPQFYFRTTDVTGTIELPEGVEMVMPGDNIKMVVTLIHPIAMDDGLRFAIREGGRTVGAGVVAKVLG
method-summary: BLI; printed as thin-film interferometry (TFI), GatorPrime label-free analyzer; biotinylated EF-Tu loaded on the sensors; L7/L12 or mutants in solution at 12.5, 6.25, 3.125, 1.563, 0.781 and 0.391 uM in binding buffer at pH 7.4
settings: both partners purified
attribute-measured: pKd
Lab note — pKd values are minus log10 of concentrations in M.

As a guide, the following entries are already answered.
binder | pKd
L7/L12 K70R, His-tagged (natural protein, 50S ribosomal protein L7/L12 (RplL), S. Typhimurium strain 14028S; Mimic of the non-acetylated form; same construct as m2 with the substitution; source: E. coli, purified (Ni-NTA); not shown: His6, C-terminal, kept) MSITKDQIIEAVSAMSVMDVVELISAMEEKFGVSAAAAVAVAAGPAEAAEEKTEFDVILKAAGANKVAVIRAVRGATGLGLKEAKDLVESAPAALKEGVSKDDAEALKKSLEEAGAEVEVK | 5.74
L7/L12 K65Q, His-tagged (natural protein, 50S ribosomal protein L7/L12 (RplL), S. Typhimurium strain 14028S; Acetylation mimic; same construct as m2 with the substitution; source: E. coli, purified (Ni-NTA); not shown: His6, C-terminal, kept) MSITKDQIIEAVSAMSVMDVVELISAMEEKFGVSAAAAVAVAAGPAEAAEEKTEFDVILKAAGANQVAVIKAVRGATGLGLKEAKDLVESAPAALKEGVSKDDAEALKKSLEEAGAEVEVK | 5.82
L7/L12 K65R, His-tagged (natural protein, 50S ribosomal protein L7/L12 (RplL), S. Typhimurium strain 14028S; Mimic of the non-acetylated form; same construct as m2 with the substitution; source: E. coli, purified (Ni-NTA); not shown: His6, C-terminal, kept) MSITKDQIIEAVSAMSVMDVVELISAMEEKFGVSAAAAVAVAAGPAEAAEEKTEFDVILKAAGANRVAVIKAVRGATGLGLKEAKDLVESAPAALKEGVSKDDAEALKKSLEEAGAEVEVK | 5.57
50S large subunit ribosomal protein L7/L12, wild type, His-tagged (natural protein, S. Typhimurium, UniProt P0A299 1-121, looked up, 50S ribosomal protein L7/L12 (RplL), S. Typhimurium strain 14028S, gene amplified from the genomic DNA; The r-protein genes seem to have been cloned into pSUMO3; also called WT L7/L12; RplL; source: E. coli BL21, purified (Ni-NTA); not shown: His6, C-terminal, kept) MSITKDQIIEAVSAMSVMDVVELISAMEEKFGVSAAAAVAVAAGPAEAAEEKTEFDVILKAAGANKVAVIKAVRGATGLGLKEAKDLVESAPAALKEGVSKDDAEALKKSLEEAGAEVEVK | 6.13

// next entry
Input L7/L12 K70Q, His-tagged (natural protein, 50S ribosomal protein L7/L12 (RplL), S. Typhimurium strain 14028S; Acetylation mimic; same construct as m2 with the substitution; source: E. coli, purified (Ni-NTA); not shown: His6, C-terminal, kept) MSITKDQIIEAVSAMSVMDVVELISAMEEKFGVSAAAAVAVAAGPAEAAEEKTEFDVILKAAGANKVAVIQAVRGATGLGLKEAKDLVESAPAALKEGVSKDDAEALKKSLEEAGAEVEVK . Output pKd: 5.88
